Numbers sourced from the supplement of paper PMC9112550.

# Tested on: Escherichia coli TOP10
# procedure.summary: shrunken log2 fold change of peptide-encoding DNA abundance (4.5 h post-induction vs induction); higher = less antimicrobial activity (less host growth inhibition)
# condition.set: time post-induction: 4.5 h; library: site-saturation at positions 5, 18, 19, 20
Class assignment keyed on shrunken log2 fold change, ranges A: < -0.2; B: ≥ -0.2 and < 0.2; C: ≥ 0.2

QUERY: Class label required: RRIRWRPPRLPRPRPRPFMKPRP
RESULT: B

----------
Items are presented alongside their recorded shrunken log2 fold change.
# Tested on: Escherichia coli TOP10
# procedure.summary: shrunken log2 fold change of peptide-encoding DNA abundance (4.5 h post-induction vs induction); higher = less antimicrobial activity (less host growth inhibition)
# condition.set: time post-induction: 4.5 h; library: site-saturation at positions 5, 18, 19, 20
Answer with a number only.

>>> readout_number("RRIRGRPPRLPRPRPRPWMGPRP")
-0.0634
>>> readout_number("RRIRTRPPRLPRPRPRPRWAPRP")
0.541
>>> readout_number("RRIRCRPPRLPRPRPRPYFCPRP")
-0.514
>>> readout_number("RRIRIRPPRLPRPRPRPRFYPRP")
-0.124
>>> readout_number("RRIRRRPPRLPRPRPRPQEWPRP")
-0.0466

QUERY: Value wanted: shrunken log2 fold change (Escherichia coli TOP10) of entry RRIRLRPPRLPRPRPRPDMPPRP
RESULT: -0.269

QUERY: Value wanted: shrunken log2 fold change (Escherichia coli TOP10) of entry RRIRFRPPRLPRPRPRPFRWPRP
RESULT: 0.178

----------
# Tested on: Escherichia coli TOP10
# procedure.summary: shrunken log2 fold change of peptide-encoding DNA abundance (4.5 h post-induction vs induction); higher = less antimicrobial activity (less host growth inhibition)
# condition.set: time post-induction: 4.5 h; library: site-saturation at positions 5, 18, 19, 20
Values of shrunken log2 fold change greater than or equal to -0.08 map to 1.0; values below map to 0.0.

See these solved cases before continuing.
>>> assigned_label("RRIRERPPRLPRPRPRPKEVPRP")
0.0
>>> assigned_label("RRIRERPPRLPRPRPRPYGRPRP")
0.0

QUERY: Please tell me: is the sequence RRIRKRPPRLPRPRPRPDVFPRP at or over -0.08 in terms of shrunken log2 fold change?
RESULT: 0.0

QUERY: Please tell me: is the sequence RRIRIRPPRLPRPRPRPGQRPRP at or over -0.08 in terms of shrunken log2 fold change?
RESULT: 1.0

QUERY: Please tell me: is the sequence RRIRGRPPRLPRPRPRPSWMPRP at or over -0.08 in terms of shrunken log2 fold change?
RESULT: 0.0

QUERY: Please tell me: is the sequence RRIRRRPPRLPRPRPRPEFLPRP at or over -0.08 in terms of shrunken log2 fold change?
RESULT: 1.0

QUERY: Please tell me: is the sequence RRIRVRPPRLPRPRPRPSWWPRP at or over -0.08 in terms of shrunken log2 fold change?
RESULT: 1.0

----------
# Tested on: Escherichia coli TOP10
# procedure.summary: shrunken log2 fold change of peptide-encoding DNA abundance (4.5 h post-induction vs induction); higher = less antimicrobial activity (less host growth inhibition)
# condition.set: time post-induction: 4.5 h; library: site-saturation at positions 5, 18, 19, 20
reported.endpoint: shrunken log2 fold change
Answer with a number only.

>>> readout_number("RRIRKRPPRLPRPRPRPKNVPRP")
0.0773
>>> readout_number("RRIRRRPPRLPRPRPRPFHEPRP")
-0.195

QUERY: Item RRIRNRPPRLPRPRPRPYQSPRP has what recorded shrunken log2 fold change?
RESULT: -0.00256

QUERY: Item RRIRVRPPRLPRPRPRPESIPRP has what recorded shrunken log2 fold change?
RESULT: -0.149

----------
# Test system: Escherichia coli TOP10
# procedure.summary: shrunken log2 fold change of peptide-encoding DNA abundance (4.5 h post-induction vs induction); higher = less antimicrobial activity (less host growth inhibition)
# condition.set: time post-induction: 4.5 h; library: site-saturation at positions 5, 18, 19, 20
reported.endpoint: shrunken log2 fold change
Answer with a number only.

Observe how each entry below is paired with its result.
>>> readout_number("RRIRERPPRLPRPRPRPKQTPRP")
-0.0871
>>> readout_number("RRIRIRPPRLPRPRPRPFNVPRP")
-0.217
>>> readout_number("RRIRHRPPRLPRPRPRPTIWPRP")
-0.284
>>> readout_number("RRIRERPPRLPRPRPRPPKLPRP")
-0.0377
>>> readout_number("RRIRVRPPRLPRPRPRPTAVPRP")
0.327
>>> readout_number("RRIRDRPPRLPRPRPRPNKQPRP")
-0.0169

QUERY: Item RRIRVRPPRLPRPRPRPEDEPRP has what recorded shrunken log2 fold change?
RESULT: 0.138

QUERY: Item RRIRTRPPRLPRPRPRPTFDPRP has what recorded shrunken log2 fold change?
RESULT: -0.0153

----------
# System: Escherichia coli TOP10
# procedure.summary: shrunken log2 fold change of peptide-encoding DNA abundance (4.5 h post-induction vs induction); higher = less antimicrobial activity (less host growth inhibition)
# condition.set: time post-induction: 4.5 h; library: site-saturation at positions 5, 18, 19, 20
Class assignment keyed on shrunken log2 fold change, ranges low = under -0.03, mid = from -0.03 up to 0.2, high = 0.2 and over

>>> assigned_label("RRIRVRPPRLPRPRPRPLARPRP")
"mid"
>>> assigned_label("RRIRHRPPRLPRPRPRPAIDPRP")
"mid"

QUERY: Class label required: RRIRYRPPRLPRPRPRPVHTPRP
RESULT: low

QUERY: Class label required: RRIRWRPPRLPRPRPRPDNGPRP
RESULT: mid

QUERY: Class label required: RRIRMRPPRLPRPRPRPYGMPRP
RESULT: mid

QUERY: Class label required: RRIRIRPPRLPRPRPRPFIIPRP
RESULT: low

QUERY: Class label required: RRIRMRPPRLPRPRPRPGRYPRP
RESULT: mid

QUERY: Class label required: RRIRFRPPRLPRPRPRPCIWPRP
RESULT: high

QUERY: Class label required: RRIRRRPPRLPRPRPRPFASPRP
RESULT: low

QUERY: Class label required: RRIRVRPPRLPRPRPRPIAAPRP
RESULT: high

QUERY: Class label required: RRIRNRPPRLPRPRPRPKCRPRP
RESULT: mid

QUERY: Class label required: RRIRIRPPRLPRPRPRPQRTPRP
RESULT: mid

QUERY: Class label required: RRIRSRPPRLPRPRPRPLRFPRP
RESULT: high

QUERY: Class label required: RRIRARPPRLPRPRPRPHICPRP
RESULT: low

QUERY: Class label required: RRIRGRPPRLPRPRPRPFNDPRP
RESULT: low

----------
# Test system: Escherichia coli TOP10;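 further: peptides expressed intracellularly from a pBAD plasmid library in pooled LB shake-flask culture, induced with 0.3% L-arabinose, DNA abundance read by NGS, three biological replicates, DESeq2 with apeglm shrinkage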
# procedure.summary: shrunken log2 fold change of peptide-encoding DNA abundance (4.5 h post-induction vs induction); higher = less antimicrobial activity (less host growth inhibition)
# condition.set: time post-induction: 4.5 h; library: site-saturation at positions 5, 18, 19, 20
Items are presented alongside their recorded shrunken log2 fold change.
Answer with a number only.

Observe how each entry below is paired with its result.
>>> readout_number("RRIRYRPPRLPRPRPRPLQWPRP")
-0.0328
>>> readout_number("RRIRTRPPRLPRPRPRPKWVPRP")
0.129
>>> readout_number("RRIRPRPPRLPRPRPRPDFEPRP")
-0.235
>>> readout_number("RRIRKRPPRLPRPRPRPFMYPRP")
-0.401
>>> readout_number("RRIRWRPPRLPRPRPRPHDPPRP")
0.23
>>> readout_number("RRIRERPPRLPRPRPRPILRPRP")
0.109
>>> readout_number("RRIRRRPPRLPRPRPRPDINPRP")
-0.243
>>> readout_number("RRIRGRPPRLPRPRPRPCMGPRP")
0.289

QUERY: Item RRIRQRPPRLPRPRPRPTGRPRP has what recorded shrunken log2 fold change?
RESULT: 0.146

QUERY: Item RRIRVRPPRLPRPRPRPTMNPRP has what recorded shrunken log2 fold change?
RESULT: -0.353

QUERY: Item RRIRLRPPRLPRPRPRPGYIPRP has what recorded shrunken log2 fold change?
RESULT: -0.41

QUERY: Item RRIRKRPPRLPRPRPRPENLPRP has what recorded shrunken log2 fold change?
RESULT: 3.46

QUERY: Item RRIRWRPPRLPRPRPRPPCFPRP has what recorded shrunken log2 fold change?
RESULT: 0.108

QUERY: Item RRIRFRPPRLPRPRPRPVFRPRP has what recorded shrunken log2 fold change?
RESULT: -0.362

QUERY: Item RRIRDRPPRLPRPRPRPSMIPRP has what recorded shrunken log2 fold change?
RESULT: -0.162
